Values from ChEMBL document CHEMBL4610097

- Test system: SW-620
- assay.notes: Cytotoxicity against human SW620 cells after 24 hrs by MTT assay
- Format: functional, cell-based
- reported.conditions: SW-620, 24 h
pIC50: −log10 of the molar value.
experimental.readout: pIC50

Answered examples (3):
C=C(C)[C@@]12O[C@@]3(c4ccccc4)O[C@@H]1[C@@H]1[C@H](O)[C@@](O)(CO)[C@@H](O)[C@]4(O)C(=O)C(C)=C[C@H]4[C@@]1(O3)[C@H](C)[C@H]2OC(=O)c1ccccc1; < 5.00
C=C(C)[C@@]1(O)[C@H](OC(=O)/C=C/C=C/CCCCC)[C@@H]2[C@H](O)[C@@](O)(CO)[C@@H](O)[C@]3(O)C(=O)C(C)=C[C@H]3[C@@]2(O)[C@H](C)[C@H]1OC(C)=O; < 5.00
C=C(C)[C@@]12O[C@@]3(/C=C/C=C/CCCCC)O[C@@H]1[C@@H]1[C@@H]4O[C@]4(CO)[C@@H](O)[C@]4(O)C(=O)C(C)=C[C@H]4[C@@]1(O3)[C@H](C)[C@H]2OC(=O)CCC; 5.28

Item C=C(C)[C@@]12O[C@@]3(/C=C/C=C/C=C\CCC)O[C@@H]1[C@@H]1[C@@H]4O[C@]4(CO)[C@@H](O)[C@]4(O)C(=O)C(C)=C[C@H]4[C@@]1(O3)[C@H](C)[C@H]2OC(=O)c1ccccc1 with SW-620 - pIC50?
< 5.00

* * *

Measured pIC50 values are reported for all entries that follow.
- Tested on: SW-620
- assay.notes: Cytotoxicity against human SW620 cells after 24 hrs by MTT assay
- Assay type: functional, cell-based
- reported.conditions: SW-620, 24 h
pIC50: −log10 of the molar value.

O=c1[nH]cc(F)c(=O)[nH]1 [FLUOROURACIL]; 5.00
C=C(C)[C@@]12O[C@@]3(c4ccccc4)O[C@@H]1[C@@H]1[C@@H]4O[C@]4(CO)[C@@H](O)[C@]4(O)C(=O)C(C)=C[C@H]4[C@@]1(O3)[C@H](C)[C@H]2OC(=O)CCC; < 5.00
C=C(C)[C@@]12O[C@@]3(/C=C/C=C\CCCCC)O[C@@H]1[C@@H]1[C@@H]4O[C@]4(CO)[C@@H](O)[C@]4(O)C(=O)C(C)=C[C@H]4[C@@]1(O3)[C@H](C)[C@H]2OC(C)=O; < 5.00
C=C(C)[C@@]1(O)[C@H](O)[C@@H]2[C@@H]3O[C@]3(CO)[C@@H](O)[C@]3(O)C(=O)C(C)=C[C@H]3[C@@]2(O)[C@H](C)[C@H]1OC(C)=O; < 5.00

# input for lookup
I am curious: what pIC50 value has been reported for C=C(C)[C@@]1(O)[C@H](OC(=O)/C=C/C=C/C=C/CCC)[C@@H]2[C@@H]3O[C@]3(CO)[C@@H](O)[C@]3(O)C(=O)C(C)=C[C@H]3[C@@]2(O)[C@H](C)[C@H]1OC(C)=O ?
< 5.00
